- Assay Procedure: Initial drug concentration in Sprague-Dawley rat blood at 5 mg/kg, iv
- Format: ADME, organism-based
- Set-up: dose 5 mg/kg, route intravenous
Parameter Measured: C0 (ng/mL)
Express the result in ng/mL but write the number alone.

C0 measured on O=c1c2ccccc2sc2cc(OCC(O)CCl)cc(O)c12 (stereo unspecified) = 44300

----------
- Assay Procedure: Elimination half life in Sprague-Dawley rat at 5 mg/kg, iv
- Assay type: ADME, organism-based
- Set-up: dose 5 mg/kg, route intravenous
- Condition Context: in vivo, read-out: beta t1/2 (converted)
Parameter Measured: half-life
Mention the unit after the number when you answer.

half-life measured on O=c1c2ccccc2sc2cc(OCC(O)CCl)cc(O)c12 (stereo unspecified) = 21 min
